# Test system: A498
# test: NCI-60 single dose screen, sulforhodamine B
# Type: cell-based, human
# conditions: Renal cancer A498; single dose 10^−5 M
# Description: In this research, all of the newly synthesised quinazolinones were subjected to in vitro anticancer screening by the National Cancer Institute (USA) against 60 different human cell lines including leukaemia, non-small cell lung cancer, colon cancer, CNS cancer, melanoma, ovarian cancer, renal cancer, prostate cancer, and breast cancer. The tested compounds were evaluated at a single dose (10^−5 M). […]
For each record, check the reported GI% at 10^−5 M: if it is below 20% write satisfied, else write not satisfied.

Recorded results for 3 compounds are shown here.
structure.string | label.class
COc1ccc(NC(=O)CNn2c(COc3ccccc3)nc3ccccc3c2=O)cc1 | not satisfied
O=c1c2ccccc2nc(COc2ccccc2)n1NS(=O)(=O)c1ccc(Cl)cc1 | not satisfied
O=C(CNn1c(COc2ccccc2)nc2ccccc2c1=O)Nc1ccc(Cl)cc1 | satisfied

Problem: Identify whether the compound `COc1ccc(N2CCN(CC(=O)Nn3c(COc4ccccc4)nc4ccccc4c3=O)CC2)cc1` records GI% at 10^−5 M below 20%.
Result: satisfied

Problem: Report whether reported GI% at 10^−5 M is lower than 20% (strictly) for `CN1CCN(CC(=O)Nn2c(COc3ccccc3)nc3ccccc3c2=O)CC1`
Result: satisfied
